B1: tRNA (parent)
chain: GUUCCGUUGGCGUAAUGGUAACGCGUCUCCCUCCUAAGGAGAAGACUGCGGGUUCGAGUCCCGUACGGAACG

- Variants of: B1
- Method: yeast fitness, log relative to wild type (ln ratio); higher = fitter; tRNA-Arg(CCU), competitive growth, 37 C, 1 M NaCl
This section presents variants with their documented yeast fitness (ln) values.
Answer field: number only, no words.

GUUCCGUUGGCGUAAUGGUAACGCGUUUCCCUCCUAAGGAGAAGAUUGCGGGUUCGAGUCCCGUAAGGAACG
-0.0465
AGUCCUUUGGCGUAAUGGUAACGCGUUUCCCUCCUAAGGAGAAGACUGCGGGUUCGAGUCCCGUAUGGGGUG
-0.446
ACUCCUUUGGCGUAAUGGUAACGCGUCUCCCUCCUAAGGAGAAGACUGCGGGUUCGAGUCCCGUAUGGAUCG
-0.153

Now for the variant whose yeast fitness (ln) we want.
Challenge: Query (variant): GUUCCGUUGGCGUAAUGGUAACGCGUCUCCCUCCUAAGGAGACGACUGCGGGUUCGAGUCCCGUAAGGGUUG ; field requested: yeast fitness (ln)
Response given: -0.398

This collection of values is drawn from the RNAGym collection of RNA variant scans (doi:10.1038/s41586-018-0170-7).
